- protocol: CCTE_Shafer_MEA_acute_firing_rate_mean: CCTE's Neural Acute Assay for Mean Firing Rate, Shafer Lab (AID 2284009);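 also: analyzed for loss of signal so actives lower firing rate relative to DMSO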
The source made the active and inactive calls. The calls were made as follows: active = hit-call score of the fitted dose curve at least 0.9, where 1 is the maximum; inactive = score below 0.9.
Respond only with the outcome that fits, drawn from Yes = active, No = inactive

Which outcome was assigned to `C=CCc1cc(S(=O)(=O)c2ccc(O)c(CC=C)c2)ccc1O` in this test?
No

Which outcome was assigned to CCCCC(CC)C(=O)OCCOCCOCCOC(=O)C(CC)CCCC (configuration not stated) in this test?
No

Which outcome was assigned to CCCCCCCC1CCC(=O)O1 (configuration not stated) in this test?
No

----------
- Read-out: Macrophage colony-stimulating factor (MCSF), CSF1 (gene 1435)
- protocol: BSK_LPS_MCSF: BioMAP Diversity Plus: LPS Assay for Macrophage colony-stimulating factor (MCSF) Biomarker Activity (AID 2283083)
- particulars: primary human HUVEC with PBMC; actives raise or lower the signal
The source made the active and inactive calls. The calls were made as follows: active = hit-call score of the fitted dose curve at least 0.9, where 1 is the maximum; inactive = score below 0.9.
measurement.type: AC50

Here are 5 compounds together with their reported answers.
>  <compound>
CNC(C)=O

>  <AC50>
inactive

$$$$
>  <compound>
CC(C)CCCCCCOC(=O)C1CCCCC1C(=O)OCCCCCCC(C)C (stereo not drawn)

>  <AC50>
inactive

$$$$
>  <compound>
O=S1(=O)CCCO1

>  <AC50>
inactive

$$$$
>  <compound>
C[C@@H](Oc1ccc(CNC(=O)c2cccnc2Oc2ccc3c(c2)OCO3)c(F)c1)C(=O)O

>  <AC50>
inactive

$$$$
>  <compound>
CCOc1ccc2[nH]cc(C(=O)NCc3ccccc3)c(=O)c2n1

>  <AC50>
inactive

$$$$

Field AC50 (entry `Cn1cc[nH]c1=S` ) reads inactive

Field AC50 (entry `COc1cc(C(C)C)c2c(c1)S(=O)(=O)N(COc1cc(=O)n3cccc(OCCN4CCCCC4)c3n1)C2=O` ) reads 5 µM (active)

Field AC50 (entry `O=C1CN(N=Cc2ccc([N+](=O)[O-])o2)C(=O)N1` ) reads inactive

Field AC50 (entry `Cc1nccn1-c1ccc(Sc2cccc(C3(C(N)=O)CCOCC3)c2)cc1` ) reads inactive

Values were extracted from PubChem BioAssay (EPA / NIEHS).
